All values here come from patent US20220125959A1.

Kindly state Biodistribution: small intestine* for each of the entries shown.
- Test system: PIP tumor and PC3 tumor
- procedure-summary: Biodistribution of 125I labeled compounds 17, 18, 26 and 27 in tumor bearing nude mice
- Format: in vivo
- measurement-context: 4 h, organ with content
Answers are plain numbers, in % ID/g.

compound	assayed-system	experimental-value
O=C(O)CC[C@H](NC(=O)N[C@@H](CCCCNC(=O)[C@H](Cc1ccccc1)NC(=O)[C@H](CCC(=O)O)NC(=O)[C@H](CCC(=O)O)NC(=O)c1ccc([125I])cc1)C(=O)O)C(=O)O [[^125I]18]	PIP tumor and PC3 tumor	1.11
O=C(O)CC[C@H](NC(=O)N[C@@H](CCCCNC(=O)[C@H](Cc1ccccc1)NC(=O)[C@H](CCC(=O)O)NC(=O)c1ccc([125I])cc1)C(=O)O)C(=O)O [[^125I]17]	PIP tumor and PC3 tumor	0.23
O=C(O)CC[C@H](NC(=O)N[C@@H](CCCCNC(=O)[C@H](Cc1ccccc1)NC(=O)COc1ccc(C[C@H](NC(=O)[C@H](CCC(=O)O)NC(=O)[C@H](CCC(=O)O)NC(=O)c2ccc([125I])cc2)C(=O)O)cc1)C(=O)O)C(=O)O [[^125I]27]	PIP tumor and PC3 tumor	0.83

Quick note, Biodistribution: small intestine* for O=C(O)CC[C@H](NC(=O)N[C@@H](CCCCNC(=O)[C@H](Cc1ccccc1)NC(=O)COc1ccc(C[C@H](NC(=O)[C@H](CCC(=O)O)NC(=O)c2ccc([125I])cc2)C(=O)O)cc1)C(=O)O)C(=O)O [[^125I]26] landed at 0.30
